// data source = patent US6017533

Catalogue of pIC50 values
- System name: PACAP receptor in rat brain crude membrane (rat)
- Assay summary: displacement of [^125 I]MAX from rat brain crude membranes
No end group written: not given here.
// scale note: pIC50 = -log10(conc_M); give the bare number

Examples with answers:
Binder: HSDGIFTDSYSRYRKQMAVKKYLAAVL-NH2 (ligand) [PACAP 27 (SEQ ID NO: 5-NH2)]
Quantitative result: 8.67

Binder: FTDSYSRYRKQMAVKKYLAAVLGKRYKQRVKNK-NH2 [PACAP 6-38 (SEQ ID NO: 6-NH2)]
Quantitative result: 8.08

Binder: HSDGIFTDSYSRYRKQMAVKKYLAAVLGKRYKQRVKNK-NH2 (ligand) [PACAP 38 (SEQ ID NO: 4-NH2)]
Quantitative result: 8.72

# ---- query binder ----
So what's the measured pIC50 for this one? FTDSYSRYRKQMAVKKYLAAVL-NH2 [PACAP 6-27 (SEQ ID NO: 7-NH2)]
6.63
